Overview of recorded selectivity ratio for various compounds
test_protocol: Therapeutic index was determined
assay_setup: read-out: TI
test_readout: selectivity ratio

>>> result("CC1(C)CC[C@]2(C(=O)O)CC[C@]3(C)[C@H](CC[C@@H]4[C@@]5(C)CC[C@H](OC(=O)CCCC(=O)O)C(C)(C)[C@@H]5CC[C@]43C)[C@@H]2C1")
4.9
>>> result("CC(C)(CC(=O)O)CC(=O)NC[C@]12CCC(C)(C)C[C@H]1C1=CC[C@@H]3[C@@]4(C)CC[C@H](OC(=O)CC(C)(C)CC(=O)O)C(C)(C)[C@@H]4CC[C@@]3(C)[C@]1(C)CC2")
212
>>> result("CC(CC(=O)O)CC(=O)O[C@H]1CC[C@]2(C)[C@H]3CC=C4[C@@H]5CC(C)(C)CC[C@]5(C(=O)O)CC[C@@]4(C)[C@]3(C)CC[C@H]2C1(C)C (stereo partly drawn)")
3.3
